- target-entity: hCaV2.2 (Homo sapiens, UniProt Q00975)
- Construct: expressed in transfected cells; plasmids pCIN5-hCaV2.2, pCIH-hCaV β3, pCIP-α2δ1
- Sequence (Q00975 whole entry): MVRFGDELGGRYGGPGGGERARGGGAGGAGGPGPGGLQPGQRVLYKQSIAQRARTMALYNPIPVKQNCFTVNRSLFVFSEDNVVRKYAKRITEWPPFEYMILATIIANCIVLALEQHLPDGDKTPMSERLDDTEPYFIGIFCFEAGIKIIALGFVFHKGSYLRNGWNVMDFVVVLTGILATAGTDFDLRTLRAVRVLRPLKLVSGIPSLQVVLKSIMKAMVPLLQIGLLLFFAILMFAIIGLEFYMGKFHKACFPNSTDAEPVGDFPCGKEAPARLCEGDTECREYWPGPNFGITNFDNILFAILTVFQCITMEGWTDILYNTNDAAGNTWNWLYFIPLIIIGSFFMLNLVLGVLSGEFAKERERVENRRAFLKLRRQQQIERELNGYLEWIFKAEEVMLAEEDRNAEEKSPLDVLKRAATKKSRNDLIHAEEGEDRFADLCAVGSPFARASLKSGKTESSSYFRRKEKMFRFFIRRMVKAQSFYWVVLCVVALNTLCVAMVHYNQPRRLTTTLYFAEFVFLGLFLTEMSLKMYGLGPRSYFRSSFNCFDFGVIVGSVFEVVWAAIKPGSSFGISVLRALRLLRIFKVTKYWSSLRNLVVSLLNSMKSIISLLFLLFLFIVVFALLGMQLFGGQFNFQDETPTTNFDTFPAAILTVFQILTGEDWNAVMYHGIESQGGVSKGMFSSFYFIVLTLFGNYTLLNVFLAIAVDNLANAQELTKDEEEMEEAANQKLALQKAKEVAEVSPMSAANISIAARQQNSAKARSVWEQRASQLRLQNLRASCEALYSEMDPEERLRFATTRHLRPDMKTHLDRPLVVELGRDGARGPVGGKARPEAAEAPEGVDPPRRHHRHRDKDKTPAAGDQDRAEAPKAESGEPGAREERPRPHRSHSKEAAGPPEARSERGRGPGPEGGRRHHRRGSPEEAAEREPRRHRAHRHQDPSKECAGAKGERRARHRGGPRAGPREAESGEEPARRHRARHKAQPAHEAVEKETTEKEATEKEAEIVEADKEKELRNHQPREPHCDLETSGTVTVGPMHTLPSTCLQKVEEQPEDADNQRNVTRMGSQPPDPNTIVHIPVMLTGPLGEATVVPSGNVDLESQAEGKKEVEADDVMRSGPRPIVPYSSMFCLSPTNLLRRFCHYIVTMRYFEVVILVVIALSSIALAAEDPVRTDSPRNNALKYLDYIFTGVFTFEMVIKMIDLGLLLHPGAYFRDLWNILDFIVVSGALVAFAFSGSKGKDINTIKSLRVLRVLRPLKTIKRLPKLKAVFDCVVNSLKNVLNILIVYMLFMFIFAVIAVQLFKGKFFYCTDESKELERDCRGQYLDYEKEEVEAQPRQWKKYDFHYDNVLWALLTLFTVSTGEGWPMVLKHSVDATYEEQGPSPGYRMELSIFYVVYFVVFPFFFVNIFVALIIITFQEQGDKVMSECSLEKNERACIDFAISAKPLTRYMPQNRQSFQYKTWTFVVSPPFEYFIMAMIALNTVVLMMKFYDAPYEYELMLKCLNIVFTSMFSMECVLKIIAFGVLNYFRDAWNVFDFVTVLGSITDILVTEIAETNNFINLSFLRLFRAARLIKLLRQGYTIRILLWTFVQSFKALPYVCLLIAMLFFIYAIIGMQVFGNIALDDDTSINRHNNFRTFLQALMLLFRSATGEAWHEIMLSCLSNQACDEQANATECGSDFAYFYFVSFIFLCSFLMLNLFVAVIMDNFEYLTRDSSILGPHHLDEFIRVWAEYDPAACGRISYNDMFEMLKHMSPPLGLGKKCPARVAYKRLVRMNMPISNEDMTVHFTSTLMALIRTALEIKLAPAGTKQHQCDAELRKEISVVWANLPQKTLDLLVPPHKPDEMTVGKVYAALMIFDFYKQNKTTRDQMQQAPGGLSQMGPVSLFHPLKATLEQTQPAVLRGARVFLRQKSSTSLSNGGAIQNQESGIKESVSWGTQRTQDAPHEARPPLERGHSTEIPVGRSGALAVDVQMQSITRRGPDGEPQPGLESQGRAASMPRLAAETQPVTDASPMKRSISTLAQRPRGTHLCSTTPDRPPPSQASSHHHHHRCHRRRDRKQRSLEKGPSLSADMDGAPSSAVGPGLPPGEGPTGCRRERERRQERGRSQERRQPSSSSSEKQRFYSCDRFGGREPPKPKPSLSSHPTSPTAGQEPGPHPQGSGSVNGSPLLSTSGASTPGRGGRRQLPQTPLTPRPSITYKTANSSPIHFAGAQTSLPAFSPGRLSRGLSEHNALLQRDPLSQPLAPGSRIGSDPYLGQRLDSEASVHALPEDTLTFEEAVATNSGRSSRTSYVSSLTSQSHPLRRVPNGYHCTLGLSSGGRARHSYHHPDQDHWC
- assay-details: hCaV2.2 assay, IonWorks planar array electrophysiology in stably transfected HEK293 cells
- Format: cell-based
- particulars: current elicited by the 1st depolarising pulse inhibited by 50%; HEK293 cells expressing human CaV2.2 alpha/beta3/alpha2delta1; read-out: mean pIC50 (tonic pIC50) (converted)
Structures can show the parent of a compound that is named as a salt.
Let's look at some molecules and their measured IC50.
readout-name: IC50

[[record]]
molecule = "Cc1cc(C#N)ccc1S(=O)(=O)N1CCN(C(=O)c2ccc(N(C)C)nc2)[C@@H](C)C1"
readout_name = "IC50"
measured_value = "≥ 31.6 µM"

[[record]]
molecule = "Cc1nc(Cl)ccc1C(=O)N1CCN(S(=O)(=O)c2ccc(C(F)(F)F)cc2)C[C@@H]1C"
readout_name = "IC50"
measured_value = "≥ 10 µM"

[[record]]
molecule = "Cc1ncccc1C(=O)N1CCN(S(=O)(=O)c2ccc(OC(F)(F)F)cc2)C[C@H]1C [Example 65]"
readout_name = "IC50"
measured_value = "≥ 31.6 µM"

[[record]]
molecule = "Cc1ccc(C(=O)N2CCN(S(=O)(=O)c3ccc(C#N)cc3C)C[C@H]2C)cn1"
readout_name = "IC50"
measured_value = "≥ 31.6 µM"

[[record]]
molecule = "Cc1cc(C#N)ccc1S(=O)(=O)N1CCN(C(=O)c2ccc(N3CCOCC3)nc2C)[C@@H](C)C1 [Example 35, hydrochloride]"
readout_name = "IC50"
measured_value = "≥ 10 µM"

[[record]]
molecule = "Cc1ccc(C(=O)N2CCN(S(=O)(=O)c3ccc(C#N)cc3C)C[C@@H]2C)c(C)n1"
readout_name = "IC50"
measured_value = "≥ 31.6 µM"

[[record]]
molecule = "Cc1ccc(C(=O)N2CCN(S(=O)(=O)c3ccc(C(F)(F)F)cc3)CC2)cn1"
readout_name = "IC50"
measured_value = "≥ 31.6 µM"

[[record]]
molecule = "Cc1ccc(C(=O)N2CCN(S(=O)(=O)c3ccc(C(F)(F)F)cc3)[C@H](C)C2)cn1 [Example 9, formic acid salt]"
readout_name = "IC50"
measured_value = "≥ 31.6 µM"

